Origin of measurements: patent US12473262B2

Reported values of half-life at 1 μM for individual entries
Experiment: Liver microsomal stability, rat
Details: rat, liver microsomes, pH 7.4
# output: bare number, implied unit min

Example cases with answers are listed next.
O=C(c1ccc(Cl)cc1Cl)c1c[nH]c2ccc(Cl)cc12	29
O=C(c1ccccc1)c1c[nH]c2ccc(Cl)cc12	57

// query Entry O=C(c1cccc2ccccc12)C1CN(C(=O)c2ccccc2)c2ccc(Cl)cc21 (stereo not drawn) : reported half-life at 1 μM = ?
// result 24.8

* * *

Molecular target: aryl hydrocarbon receptor (AhR) (Mus musculus (Mouse), UniProt P30561)
Sequence (P30561 10-805): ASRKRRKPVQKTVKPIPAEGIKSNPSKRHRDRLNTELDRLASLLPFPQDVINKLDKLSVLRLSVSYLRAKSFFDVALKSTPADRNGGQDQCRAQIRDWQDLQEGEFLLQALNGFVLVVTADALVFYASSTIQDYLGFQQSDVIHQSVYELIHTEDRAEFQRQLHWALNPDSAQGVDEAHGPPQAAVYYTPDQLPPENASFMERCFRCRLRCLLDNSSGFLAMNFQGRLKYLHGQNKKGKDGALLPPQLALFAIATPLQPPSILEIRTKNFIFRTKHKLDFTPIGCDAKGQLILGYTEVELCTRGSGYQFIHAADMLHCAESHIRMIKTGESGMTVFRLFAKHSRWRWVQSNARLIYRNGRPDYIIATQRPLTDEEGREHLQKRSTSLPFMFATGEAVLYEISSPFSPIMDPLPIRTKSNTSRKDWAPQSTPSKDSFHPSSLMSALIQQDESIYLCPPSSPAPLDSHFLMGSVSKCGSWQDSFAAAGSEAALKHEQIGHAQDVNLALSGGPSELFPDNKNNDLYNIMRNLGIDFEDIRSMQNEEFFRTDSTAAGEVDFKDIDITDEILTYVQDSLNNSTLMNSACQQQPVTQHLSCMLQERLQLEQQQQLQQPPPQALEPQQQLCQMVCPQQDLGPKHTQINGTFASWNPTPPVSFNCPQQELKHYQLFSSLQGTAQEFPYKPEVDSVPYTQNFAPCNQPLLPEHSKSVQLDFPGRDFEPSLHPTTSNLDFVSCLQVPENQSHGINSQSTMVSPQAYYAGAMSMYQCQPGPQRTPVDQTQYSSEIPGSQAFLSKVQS
Sequence (P53762 whole entry partner): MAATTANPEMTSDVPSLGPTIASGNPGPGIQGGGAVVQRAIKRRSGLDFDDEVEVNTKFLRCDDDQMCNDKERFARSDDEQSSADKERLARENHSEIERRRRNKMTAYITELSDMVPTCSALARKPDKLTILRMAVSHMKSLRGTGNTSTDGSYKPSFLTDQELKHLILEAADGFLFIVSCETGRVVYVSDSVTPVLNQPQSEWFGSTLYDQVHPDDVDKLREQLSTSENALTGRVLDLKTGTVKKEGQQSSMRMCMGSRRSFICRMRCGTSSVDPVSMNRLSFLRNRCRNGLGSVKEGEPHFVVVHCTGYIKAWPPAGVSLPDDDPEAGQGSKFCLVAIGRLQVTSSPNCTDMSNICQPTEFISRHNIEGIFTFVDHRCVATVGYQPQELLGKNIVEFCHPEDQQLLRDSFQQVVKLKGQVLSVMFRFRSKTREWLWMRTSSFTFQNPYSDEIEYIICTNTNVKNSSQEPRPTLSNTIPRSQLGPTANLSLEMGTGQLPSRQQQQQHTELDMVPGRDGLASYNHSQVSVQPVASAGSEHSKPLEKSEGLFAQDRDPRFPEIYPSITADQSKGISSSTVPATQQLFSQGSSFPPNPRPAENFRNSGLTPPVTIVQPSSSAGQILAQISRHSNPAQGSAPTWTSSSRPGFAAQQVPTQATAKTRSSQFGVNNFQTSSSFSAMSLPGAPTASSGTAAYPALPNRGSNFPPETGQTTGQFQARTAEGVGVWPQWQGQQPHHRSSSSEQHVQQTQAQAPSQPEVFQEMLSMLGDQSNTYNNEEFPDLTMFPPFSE
Assay: AhR ligand screening: AhRE-luciferase reporter in transfected Hepa1 cells
Assay type: cell-based
Settings: fold change of luciferase expression at 10 uM test compound relative to vehicle (0.1% DMSO)
Overview of reported Fold @ 10 uM across a group of compounds:
Give the value, in units of fold, as a plain number.

// query For the compound shown here, `O=C(c1cccc2ccccc12)c1c[nH]c2ccc(Cl)cc12` , give the reported Fold @ 10 uM.
// result 11

// query For `COC(=O)c1ccc2[nH]c(-c3cccc4ccccc34)nc2c1` , what is its reported Fold @ 10 uM?
// result 18

// query Return reported Fold @ 10 uM; argument: `COC(=O)c1ccc2c(c1)nc(-c1cccc3ccccc13)n2S(=O)(=O)c1ccc(C(F)(F)F)cc1`
// result 2

// query Need Fold @ 10 uM, item `O=C(c1ccc2nc(-c3cccc4ccccc34)n(Cc3ccc(SC(F)(F)F)cc3)c2c1)N1CCCCC1`
// result 6

// query Value lookup for Fold @ 10 uM; key = `O=C(c1ccccc1)n1c(-c2cc3ccccc3o2)nc2ccc(Cl)cc21`
// result 30

// query Would you mind telling me what Fold @ 10 uM value was observed for `Clc1ccc2nc(-c3cccc4ccccc34)n(Cc3ccnc4ccccc34)c2c1` ?
// result 28

// query For the compound shown here, `COc1ccc(C(=O)n2c(-c3cccc4ccccc34)nc3ccc(Cl)cc32)cc1OC` , give the reported Fold @ 10 uM.
// result 34

// query Give its Fold @ 10 uM value. Item: `O=C(c1ccc2nc(-c3cccc4ccccc34)n(S(=O)(=O)c3ccc(Cl)cc3)c2c1)N1CCOCC1`
// result 2

* * *

Biological target: CYP-2B6 (Homo sapiens (Human), UniProt P20813)
Sequence (P20813 whole entry): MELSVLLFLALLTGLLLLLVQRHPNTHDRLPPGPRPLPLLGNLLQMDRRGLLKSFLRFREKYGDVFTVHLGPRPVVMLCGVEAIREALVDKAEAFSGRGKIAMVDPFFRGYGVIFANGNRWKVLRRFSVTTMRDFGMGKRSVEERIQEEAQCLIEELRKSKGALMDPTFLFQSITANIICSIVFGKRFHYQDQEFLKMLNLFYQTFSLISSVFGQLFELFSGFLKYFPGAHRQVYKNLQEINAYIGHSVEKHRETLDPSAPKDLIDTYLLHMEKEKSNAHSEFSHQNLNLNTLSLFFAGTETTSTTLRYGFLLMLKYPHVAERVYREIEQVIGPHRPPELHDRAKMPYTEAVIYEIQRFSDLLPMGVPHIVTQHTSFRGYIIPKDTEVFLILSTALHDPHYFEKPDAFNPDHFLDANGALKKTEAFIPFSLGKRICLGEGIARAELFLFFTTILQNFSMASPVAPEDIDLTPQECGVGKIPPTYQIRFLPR
Assay: CYP panel profile: P450 inhibition, CYP-2B6
Type: in vitro ADME
Conditions: human liver microsomes
The following ranges of IC50 define the classes used here: LOW: < 10 µM; MID: ≥ 10 µM and < 20 µM; HIGH: ≥ 20 µM

Examples with answers:
O=C(c1ccccc1)n1c(-c2cccc3ccccc23)nc2cc(OC(F)(F)F)ccc21	MID
O=S(=O)(c1ccc(C(F)(F)F)cc1)n1c(-c2cccc3ccccc23)nc2ccc(Cl)cc21	HIGH
O=C(c1ccccc1)n1c(-c2cccc3ccccc23)nc2cc(Cl)ccc21	HIGH
O=C(c1c(F)cc(Br)cc1F)n1c(-c2cccc3ccccc23)nc2cc(Cl)ccc21	MID

// query For `COc1ccc(C(=O)n2c(-c3cccc4ccccc34)nc3cc(Cl)ccc32)cc1` , which IC50 bin applies?
// result HIGH

// query Class? Entry: `COc1ccc(C(=O)n2c(-c3cccc4ccccc34)nc3ccc(Cl)cc32)cc1`
// result MID

// query Consider `O=C(c1cccc2ccccc12)n1c(-c2cccc3ccccc23)nc2cc(Cl)ccc21` . To which IC50 class does it belong?
// result LOW

// query Band for `COC(=O)c1ccc2c(c1)nc(-c1cccc3ccccc13)n2C(=O)c1ccc(F)c(F)c1` ?
// result MID

* * *

Assay: Liver microsomal stability, mouse
Details: mouse liver microsomes, 30 min, 1 μM compound, 0.5 mg/ml protein
assay endpoint: Rem @ MLM × 30 min (%)
Could you give me the number in %? Just the number is fine.

Examples from the recorded data:
COc1ccc(C(=O)c2c[nH]c3ccc(Cl)cc23)cc1	54.5
O=S(=O)(c1ccc2ccccc2c1)n1c(-c2cccc3ccccc23)nc2ccc(Cl)cc21	22.1
O=S(=O)(c1ccc(C(F)(F)F)cc1)n1c(-c2cccc3ccccc23)nc2cc(Cl)ccc21	18.0
O=C(c1ccc(Cl)cc1Cl)c1c[nH]c2ccc(Cl)cc12	39.3
O=S(=O)(c1ccc(C(F)(F)F)cc1)n1c(-c2cccc3ccccc23)nc2ccc(Cl)cc21	14.9
CN(C)c1ccc(C(=O)c2c[nH]c3ccc(Cl)cc23)cc1	52.4
O=C(c1ccccc1)c1c[nH]c2ccc(Cl)cc12	36.7
O=C(c1ccc(F)c(F)c1)n1c(-c2ccc(-c3ccccc3)cc2)nc2ccc(Cl)cc21	71.7

// query Which value of Rem @ MLM × 30 min has been reported for `O=C(c1ccc(F)c(F)c1)n1c(-c2cccc3ccccc23)cc2cc(Cl)ccc21` in the records?
// result 58.7

* * *

Listed molecules paired with reported Fold @ 10 uM
Biological target: aryl hydrocarbon receptor (AhR) (Mus musculus (Mouse), UniProt P30561)
Test: AhR ligand screening: AhRE-luciferase reporter in transfected Hepa1 cells
Format: cell-based
Conditions: fold change of luciferase expression at 10 uM test compound relative to vehicle (0.1% DMSO)
Write down the numeric answer in fold and omit the unit.

// query Quick one: Fold @ 10 uM of `COc1ccc(C(=O)n2c(-c3cc4ccccc4s3)nc3ccc(F)cc32)cc1` ?
// result 24

* * *

Target: aryl hydrocarbon receptor (AhR) (Mus musculus (Mouse))
Assay: AhR ligand screening: AhRE-luciferase reporter in transfected Hepa1 cells
Format: cell-based
Details: fold change of luciferase expression at 10 uM test compound relative to vehicle (0.1% DMSO)
Returns criterion met if the recorded Fold @ 10 uM is greater than or equal to 5 fold, and criterion not met otherwise.

See these solved cases before continuing.
O=C(c1ccc(C(F)(F)F)cc1)c1c[nH]c2ccc(Cl)cc12 [Compound 883]	criterion not met
O=C(c1ccc(F)cc1F)n1c(-c2cccc3ccccc23)nc2cc(Cl)ccc21 [Compound 695]	criterion met
O=C(c1ccccc1)n1c(-c2cccc(C(F)(F)F)c2)nc2ccc(Cl)cc21 [Compound 789]	criterion met

// query Would you say Cc1ccc(C(=O)n2c(-c3cccc4ccccc34)nc3cc(Cl)ccc32)cc1 [Compound 697] shows Fold @ 10 uM at minimum 5 fold?
// result criterion met

* * *

Target: aryl hydrocarbon receptor (AhR) (Mus musculus (Mouse))
Experiment: AhR ligand screening: AhRE-luciferase reporter in transfected Hepa1 cells
Assay type: cell-based
Details: fold change of luciferase expression at 10 uM test compound relative to vehicle (0.1% DMSO)
Fold @ 10 uM values, listed per item
Field format: number, assumed fold, no unit text.

CCc1ccc(S(=O)(=O)n2c(-c3cccc4ccccc34)nc3ccc(Cl)cc32)cc1 [Compound 776]	20
COC(=O)c1ccc2nc(-c3cccc4ccccc34)n(Cc3ccc(F)c(F)c3)c2c1 [Compound 1339]	4
O=C(c1ccc(F)c(F)c1)n1c(-c2csc3ccccc23)nc2cc(Cl)ccc21 [Compound 861]	90
O=C(c1ccc(F)cc1F)n1c(-c2cccc3ccccc23)nc2cc(Cl)ccc21 [Compound 694]	35

// query Endpoint output: Fold @ 10 uM of COc1ccc(Cn2c(-c3cccc4ccccc34)nc3cc(Cl)ccc32)cc1 [Compound 852] . Value?
// result 29

// query Query (compound): Fc1ccc(Cn2c(-c3cccc4ccccc34)nc3cc(Cl)ccc32)cc1F [Compound 887] ; field requested: Fold @ 10 uM
// result 14

// query Given the compound O=C(c1ccc2nc(-c3cccc4ccccc34)n(Cc3ccc(F)c(F)c3)c2c1)N1CCOCC1 [Compound 1330] , what is its reported Fold @ 10 uM?
// result 1

// query # input compound: O=C(c1ccc(F)c(F)c1)n1c(-c2cccc3ccccc23)nc2cc(Cl)ccc21 [Compound 529] ; wanted: its Fold @ 10 uM
// result 52

// query I am curious: what Fold @ 10 uM value has been reported for O=c1c2cccc3cccc(c32)c2nc3ccccc3n12 [Compound 523] ?
// result 12

// query Consider the compound shown here: COc1ccc(C(=O)n2c(-c3cccc(C(F)(F)F)c3)nc3ccc(Cl)cc32)cc1 [Compound 765] What is its recorded Fold @ 10 uM?
// result 14

// query # lookup: Fold @ 10 uM of O=C(c1ccc2nc(-c3cccc4ccccc34)n(S(=O)(=O)c3ccc(C(F)(F)F)cc3)c2c1)N1CCOCC1 [Compound 1370]
// result 4

// query Reported Fold @ 10 uM, compound O=C(c1ccc(F)c(F)c1)n1c(-c2c3ccccc3cc3ccccc23)nc2ccc(Cl)cc21 [Compound 642] : ____
// result 27

* * *

Assay: In vivo PK study, intravenous and oral administration in male mice
Set-up: species or system mouse
Settings: mouse, PO 8 mg/Kg, plasma
assay endpoint: MRT (h)
Answer with a number only, understood to be in h.

Clc1ccc2[nH]c(-c3cccc4ccccc34)cc2c1 [Compound 893, 5-chloro-2-(naphthalen-1-yl)-1H-indole]	2.66

--- query ---
// query Name the reported MRT value associated with the compound O=c1c2cccc3cccc(c32)c2nc3cc(Cl)ccc3n12 [Compound 362]
// result 1.63
